Assay Summary: Human Hepatocyte Stability (Test D)
Format: in vitro ADME
Study Conditions: human hepatocytes; geometric mean if run multiple times
Each record here notes measured Test D Human Hepatocyte Stability Clint.

Solved cases below.
COc1cc(F)c(O[C@H]2CC[C@@](C)(C(=O)O)CC2)cc1C(=O)N[C@H]1C[C@@H](OC)C[C@H]1C(=O)Nc1cccc(S(=O)(=O)C(F)(F)F)c1 (stereo in doubt) [Example 523] : 49 μL/min/10^6 cells
COc1cc(F)c(O[C@H]2CC[C@@](C)(C(N)=O)CC2)cc1C(=O)N[C@@H]1[C@H]2CC[C@H](C2)[C@@H]1C(=O)NCC1(F)CCOCC1 [Example 147] : 6.1 μL/min/10^6 cells
COc1cc(C#N)c(O[C@H]2CC[C@@](C)(C(=O)O)CC2)cc1C(=O)N[C@H]1C2CCC(CC2)[C@H]1C(=O)NCC1(C)CCC1 (relative stereo) [Example 539] : 64 μL/min/10^6 cells
COc1cc(F)c(O[C@H]2CC[C@@](C)(C(=O)O)CC2)cc1C(=O)N[C@@H]1COCC[C@@H]1C(=O)Nc1cccc(S(=O)(=O)C(F)(F)F)c1 (relative stereo) [Example 559] : 4.1 μL/min/10^6 cells
CCC(C)CNC(=O)C1C2CCC(C2)C1NC(=O)c1cc(OC2CCC(C(=O)O)CC2)c(F)cc1OC (single isomer, unassigned) [Example 203] : 5 μL/min/10^6 cells

Consider now this further compound.
// Test D Human Hepatocyte Stability Clint value for COc1cc(F)c(O[C@H]2CC[C@@](C)(C(=O)O)CC2)cc1C(=O)N[C@@H]1COC[C@@H]1C(=O)Nc1cccc(S(=O)(=O)C(F)(F)F)c1 (relative stereo) [Example 561] : 6.3 μL/min/10^6 cells
